Value source: paper PMC7179167

# inhibition annotations
- measurement-description: DPPH free radical scavenging assay
- Assay type: biochemical
- assay-conditions: 30 min; concentration of 20µg/l; mean ± SD of three experiments; read-out: Scavenging Activity (%) on DPPH radicals at 30 min
- Description: Antioxidant activity of the newly synthesized 13a–i, 14a–i, 11a–c and 12a–c were assessed in terms of hydrogen-donating or radical-scavenging ability via the stable free radical 1,1-diphenyl-2-picrylhydrazyl (DPPH) using ascorbic acid as a reference at a concentration of […]. The free radical scavenging activity (RSA) was assessed spectrophotometically at 517 nm via decoloration of the solution of the DPPH (1,1-diphenyl-2-picrylhydrazyl) radical according to Brand-Williams et al. 1995 [32]. […]

| compound | inhibition |
| --- | --- |
| CCn1cc(C2=NNC3(C2)C(=O)Nc2ccccc23)c2ccccc21 (centres unmarked) [Compound 13b] | 47% |
| O=C1Nc2ccccc2C12CC(c1c[nH]c3ccccc13)=NN2 (centres unmarked) [Compound 13a] | 45.8% |
| O=C1Nc2ccccc2C12CC(c1c[nH]c3ccccc13)=NN2c1ccccc1 (centres unmarked) [Compound 14a] | 51.5% |
| COc1c(C2=NNC3(C2)C(=O)Nc2ccccc23)c(OC)c2ccoc2c1OC (centres unmarked) [Compound 12b] | 23.5% |
| CCn1cc(C2=NN(c3ccccc3)C3(C2)C(=O)Nc2ccccc23)c2ccccc21 (centres unmarked) [Compound 14b] | 58.1% |
| O=C1Nc2ccccc2C12CC(c1cn(S(=O)(=O)c3ccc(Cl)cc3)c3ccccc13)=NN2c1ccccc1 (centres unmarked) [Compound 14h] | 67.3% |
| O=C1Nc2ccccc2C12CC(c1cn(S(=O)(=O)c3ccc(Cl)cc3)c3ccccc13)=NN2 (centres unmarked) [Compound 13h] | 16.3% |
| O=C1Nc2ccccc2C12CC(c1cn(Cc3ccccc3)c3ccccc13)=NN2c1ccccc1 (centres unmarked) [Compound 14c] | 22.6% |
| O=C(c1ccc(Cl)cc1)n1cc(C2=NNC3(C2)C(=O)Nc2ccccc23)c2ccccc21 (centres unmarked) [Compound 13f] | 28.3% |
| CCOc1cc2occc2c(OC)c1C1=NNC2(C1)C(=O)Nc1ccccc12 (centres unmarked) [Compound 11c] | 40.6% |
| O=C(c1ccccc1Cl)n1cc(C2=NN(c3ccccc3)C3(C2)C(=O)Nc2ccccc23)c2ccccc21 (centres unmarked) [Compound 14e] | 28.2% |
| O=C(c1ccc(Cl)cc1)n1cc(C2=NN(c3ccccc3)C3(C2)C(=O)Nc2ccccc23)c2ccccc21 (centres unmarked) [Compound 14f] | 10.2% |
| O=C(c1ccccc1)n1cc(C2=NN(c3ccccc3)C3(C2)C(=O)Nc2ccccc23)c2ccccc21 (centres unmarked) [Compound 14d] | 41.8% |
| COc1c(C2=NNC3(C2)C(=O)Nc2ccccc23)c(O)c(OC)c2occc12 (centres unmarked) [Compound 12a] | 67.1% |
| COc1c(-c2cnc3ccccc3c2C(=O)O)c(O)cc2occc12 [Compound 15a] | 14.2% |
| O=C(c1ccccc1Cl)n1cc(C2=NNC3(C2)C(=O)Nc2ccccc23)c2ccccc21 (centres unmarked) [Compound 13e] | 26.1% |
| O=C(c1ccccc1)n1cc(C2=NNC3(C2)C(=O)Nc2ccccc23)c2ccccc21 (centres unmarked) [Compound 13d] | 31.3% |

====

// reported melting point per item

| molecule | melting point |
| --- | --- |
| O=C(c1ccccc1)n1cc(C2=NNC3(C2)C(=O)Nc2ccccc23)c2ccccc21 (stereo not drawn) [Compound 13d] | 307 to 309 °C |
| O=C1Nc2ccccc2C12CC(c1cn(S(=O)(=O)c3ccc(Cl)cc3)c3ccccc13)=NN2c1ccccc1 (stereo not drawn) [Compound 14h] | 110 to 112 °C |
| O=C(c1ccccc1)n1cc(C2=NN(c3ccccc3)C3(C2)C(=O)Nc2ccccc23)c2ccccc21 (stereo not drawn) [Compound 14d] | 100 to 102 °C |
